Data provenance: PubChem BioAssay (EPA / NIEHS)

Test: ATG_ISRE_CIS: Attagene CIS-FACTORIAL HepG2 Assay for human Interferon Regulatory Factor 1 (IRF1) binding to an Interferon-Stimulated Response Element (ISRE) (AID 2282948)
Conditions: HepG2 ISRE cis-reporter (Attagene), mRNA transcription readout; actives raise or lower the signal
Method: ATG_CIS is a cell-based, multiplexed-readout assay that uses HepG2, a human liver cell line, with measurements taken at 24 hours after chemical dosing in a 24-well plate.ATG_ISRE_CIS is one of 52 assay component(s) measured or calculated from the ATG_CIS assay. […] This assay endpoint, ATG_ISRE_CIS, was analyzed with bidirectional fitting relative to DMSO as the negative control and baseline of activity. […]
Activity calls are given as the source filed them. The calls were made as follows: active = hit-call score of the fitted dose curve at least 0.9, where 1 is the maximum; inactive = score below 0.9.
Classes used: Yes (active), No (inactive)

Compound | Qualitative Label
O=C(O)c1ccc(C(=O)O)cc1 | No
C=C(C)C(=O)O[C@H]1C[C@@H]2CC[C@@]1(C)C2(C)C | No
CCCCCC=CCC(=O)OC | No
CCCCCCCCCCCCSC | No
Nc1nc2ccc([N+](=O)[O-])cc2s1 | Yes
COC(=O)Cc1cccc2ccccc12 | No
CN(C)c1ccc(O)c2c1C[C@H]1C[C@H]3[C@H](N(C)C)C(=O)C(C(N)=O)=C(O)[C@@]3(O)C(=O)C1=C2O | No
CC(C)C1CCC(O)CC1 (configuration not stated) | No
CCCCNC(=O)NS(=O)(=O)c1ccc(N)cc1 | No
FC1(F)C(F)(F)C(F)(F)C2(F)C(F)(C1(F)F)C(F)(F)C(F)(F)C1(F)C(F)(F)C(F)(F)C(F)(F)C(F)(F)C12F (configuration not stated) | No
CC(C)(C)c1cc(CCC(=O)NN)cc(C(C)(C)C)c1O | No
c1ccc2sc(SN(C3CCCCC3)C3CCCCC3)nc2c1 | No
CC(=O)Nc1ccc(CC(=O)O)cc1 | No
CC1(C)[C@@H]2CC[C@@]1(C)[C@H](O)C2 | No
Nc1cc([N+](=O)[O-])ccc1O | No
Cc1ccc(S)cc1 | Yes
CCN(CC)CCOC(=O)c1ccc(N)cc1 | No
Cc1cccc(C)c1[N+](=O)[O-] | No
CCC(=O)/C=C/C1C(C)=CCCC1(C)C (configuration not stated) | No
CC1CC(OC(=O)c2ccccc2O)CC(C)(C)C1 (configuration not stated) | No
O=C1OC2(c3cc(Br)c(O)c(Br)c3Oc3c2cc(Br)c(O)c3Br)c2c(Cl)c(Cl)c(Cl)c(Cl)c21 | No
C=CC[N+](C)(C)CC=C | No
CC(=O)OCCOC(C)=O | No
Cc1ccc(C=O)s1 | No
O=C1O[C@@H]2[C@@H](O)[C@H](O)O[C@@H]2[C@H]1O | No
Clc1ccc(Cl)c(Cl)c1Cl | No
NC(N)=NC(=O)c1nc(Cl)c(N)nc1N | Yes

----------
Assay: ATG_NRF2_ARE_CIS: Attagene CIS-FACTORIAL HepG2 Assay for human Nuclear Factor Erythroid 2 Related Factor 2 (NFR2) response to Antioxidant Response Elements (ARE) (AID 2282992)
Conditions: HepG2 Attagene ARE/NRF2 reporter, transcription factor activity; actives raise or lower the signal
Calls of active or inactive are those of the source. The calls were made as follows: active = hit-call score of the fitted dose curve at least 0.9, where 1 is the maximum; inactive = score below 0.9.
Classes used: active, inactive

Molecule | Qualitative Label
CC(=O)O[C@]1(C(C)=O)CC[C@H]2[C@@H]3C[C@H](C)C4=CC(=O)CC[C@]4(C)[C@H]3CC[C@@]21C | active
Clc1ccc2c(c1)C(N1CCNCC1)=Nc1ccccc1O2 | inactive
COC(C(=O)O)c1ccccc1 (configuration not stated) | inactive
CN(CCOc1ccc(CC2SC(=O)NC2=O)cc1)c1ccccn1 (configuration not stated) | active
CCCCN | inactive
O=C(COc1ccc(Cl)cc1)N1CCN(Cc2ccc3c(c2)OCO3)CC1 | active
Clc1sc(Cl)c(Cl)c1Cl | inactive
O=S(=O)(O)c1cccc2c(S(=O)(=O)O)cccc12 | inactive
COC(=O)C1=C(C)NC(C)=C(C(=O)OCCN(C)Cc2ccccc2)C1c1cccc([N+](=O)[O-])c1 (configuration not stated) | inactive
CC(C)(C)C(=O)c1ccccc1 | inactive
c1cc(C(c2ccc(OCC3CO3)cc2)c2ccc(OCC3CO3)cc2)ccc1OCC1CO1 (configuration not stated) | inactive
O=C(O)CCCCCCCCCCC(=O)O | inactive

----------
Read-out: Monokine induced gamma interferon (MIG), CXCL9 (gene 4283)
Test: BSK_3C_MIG: BioMAP Diversity Plus: 3C Assay for Monokine induced gamma interferon (MIG) Biomarker Activity (AID 2283021)
Settings: primary human endothelial cells (HUVEC); actives raise or lower the signal
The source made the active and inactive calls. The calls were made as follows: active = hit-call score of the fitted dose curve at least 0.9, where 1 is the maximum; inactive = score below 0.9.
Classes used: active, inactive

Molecule | Qualitative Label
Nc1cc([N+](=O)[O-])ccc1O | inactive
CC(=O)O[C@]1(C(C)=O)CC[C@H]2[C@@H]3C[C@H](C)C4=CC(=O)CC[C@]4(C)[C@H]3CC[C@@]21C | inactive
CC1CCC(C(C)CS)CC1S (stereo unspecified) | active
CCc1c(C)cc(N)c(CC)c1N | inactive
CC(=O)[C@H]1CC[C@H]2[C@@H]3CC=C4C[C@@H](O)CC[C@]4(C)[C@H]3CC[C@]12C | inactive
CC(=O)OCCC(C)CC(C)(C)C (stereo unspecified) | inactive

----------
Molecular target: Cellular tumor antigen p53 (Homo sapiens) (UniProt P04637)
Sequence (P04637 whole entry, looked up): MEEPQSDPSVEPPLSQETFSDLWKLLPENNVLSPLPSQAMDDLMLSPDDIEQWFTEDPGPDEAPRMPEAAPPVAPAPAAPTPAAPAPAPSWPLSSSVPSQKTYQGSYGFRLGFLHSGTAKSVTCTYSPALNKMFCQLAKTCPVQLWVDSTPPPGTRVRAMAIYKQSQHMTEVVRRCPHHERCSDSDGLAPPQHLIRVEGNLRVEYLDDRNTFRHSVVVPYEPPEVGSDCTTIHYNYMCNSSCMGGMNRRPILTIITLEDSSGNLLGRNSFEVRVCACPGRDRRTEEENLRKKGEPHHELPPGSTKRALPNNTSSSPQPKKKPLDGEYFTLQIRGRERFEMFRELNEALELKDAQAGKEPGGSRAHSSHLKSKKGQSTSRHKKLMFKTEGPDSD
Assay: TOX21_p53_BLA_p2_ratio: Tox21 HCT-116 p53 Agonism Beta-lactamase Assay, Ratio, Phase 2 (AID 2283592)
Records with an inconclusive call do not appear. Active and inactive are the calls of the source. The calls were made as follows: active = hit-call score of the fitted dose curve at least 0.9, where 1 is the maximum; inconclusive = response in the unintended direction; inactive = score below 0.9.
Classes used: t for active, f for inactive

Molecule | Measured On | Qualitative Label
C=C(C)[C@@H]1CCC2=CC(=O)C[C@@H](C)[C@]2(C)C1 | Cellular tumor antigen p53 (Homo sapiens) (UniProt P04637) | f
NCCOCCO | Cellular tumor antigen p53 (Homo sapiens) (UniProt P04637) | f
C=CC(C)(O)CCC=C(C)CCC=C(C)C (configuration not stated) | Cellular tumor antigen p53 (Homo sapiens) (UniProt P04637) | f
O=C1C(c2[nH]c3ccc(S(=O)(=O)O)cc3c2O)=Nc2ccc(S(=O)(=O)O)cc21 | Cellular tumor antigen p53 (Homo sapiens) (UniProt P04637) | f
CC(C)[C@@H]1CC[C@@H](C)CC1=O | Cellular tumor antigen p53 (Homo sapiens) (UniProt P04637) | f
FC1(F)C(F)(F)C(F)(F)C2(F)C(F)(C1(F)F)C(F)(F)C(F)(F)C1(F)C(F)(F)C(F)(F)C(F)(F)C(F)(F)C12F (configuration not stated) | Cellular tumor antigen p53 (Homo sapiens) (UniProt P04637) | f
CCCCCCCCC | Cellular tumor antigen p53 (Homo sapiens) (UniProt P04637) | f
O=P(c1ccccc1)(c1ccccc1)c1ccccc1 | Cellular tumor antigen p53 (Homo sapiens) (UniProt P04637) | f
O=C[C@@H](O)[C@H](O)[C@H](O)CO | Cellular tumor antigen p53 (Homo sapiens) (UniProt P04637) | f
O=C1O[C@@H]2[C@@H](O)[C@H](O)O[C@@H]2[C@H]1O | Cellular tumor antigen p53 (Homo sapiens) (UniProt P04637) | f
O=C(O)CCCCCCCC(=O)O | Cellular tumor antigen p53 (Homo sapiens) (UniProt P04637) | f
CCCc1c(OCCCOc2ccc(OCC(=O)O)cc2)ccc(C(C)=O)c1O | Cellular tumor antigen p53 (Homo sapiens) (UniProt P04637) | t
CNC(=O)Oc1ccc2c(c1)[C@]1(C)CCN(C)[C@@H]1N2C | Cellular tumor antigen p53 (Homo sapiens) (UniProt P04637) | f
Cc1ccc(S)cc1 | Cellular tumor antigen p53 (Homo sapiens) (UniProt P04637) | f
Nc1ccc(S(N)(=O)=O)cc1 | Cellular tumor antigen p53 (Homo sapiens) (UniProt P04637) | f
Nc1ccc(S(=O)(=O)O)c(N)c1 | Cellular tumor antigen p53 (Homo sapiens) (UniProt P04637) | f
O=C=NC1CCC(CC2CCC(N=C=O)CC2)CC1 (configuration not stated) | Cellular tumor antigen p53 (Homo sapiens) (UniProt P04637) | f
COc1cc(C=O)ccc1OC(=O)C(C)C | Cellular tumor antigen p53 (Homo sapiens) (UniProt P04637) | f
C=C(C)C(=O)OCCOC(=O)CC(C)=O | Cellular tumor antigen p53 (Homo sapiens) (UniProt P04637) | f
OCCOCCOCCOCCO | Cellular tumor antigen p53 (Homo sapiens) (UniProt P04637) | f
C=CC(=O)OCCOCCOCC | Cellular tumor antigen p53 (Homo sapiens) (UniProt P04637) | f
O=c1[nH]c(=O)n([C@H]2CCCO2)cc1F | Cellular tumor antigen p53 (Homo sapiens) (UniProt P04637) | f
CCCCCCCCCCC(CO)CCCCCCCC (configuration not stated) | Cellular tumor antigen p53 (Homo sapiens) (UniProt P04637) | f
C[Si](O[Si](C)(C)C)O[Si](C)(C)C | Cellular tumor antigen p53 (Homo sapiens) (UniProt P04637) | f
CC(C)[C@H]1CC[C@@H](C)CC1=O | Cellular tumor antigen p53 (Homo sapiens) (UniProt P04637) | f
CN(C)CCCN | Cellular tumor antigen p53 (Homo sapiens) (UniProt P04637) | f
O=C(O)C[C@H](O)C[C@H](O)/C=C/c1c(C2CC2)nc2ccccc2c1-c1ccc(F)cc1 | Cellular tumor antigen p53 (Homo sapiens) (UniProt P04637) | f
